- system_tested: CqsR periplasmic domain (CqsRp) (Vibrio cholerae)
- condition_details: MST binding studies, summary of Fig 4
quantity_name: CqsR binding (in words)

Examples with answers:
C[C@H](N)C(=O)O
not tolerated
NCC(N)=O [glycinamide]
not tolerated
NC(CO)(CO)CO
Weak CqsR binding
CCCN
not tolerated
NCC(=O)O
not tolerated
CCC(N)CC
not tolerated

List the reported CqsR binding (in words) of each molecule below.
1. OCCO
2. OCC(O)CO
3. NCCS
4. CCC(N)CO (stereo not shown)
5. CCCO

Resp:
1. No binding
2. No binding
3. not tolerated
4. Weak CqsR binding
5. No binding

Dear reader, for each entry below, please note its CqsR binding (in words).
1. CC[C@H](N)CO [(S)-(+)-2-amino-1-butanol]
2. NCCN

Resp:
1: Weak CqsR binding; 2: Weak CqsR binding
